Entry source: the supplement of paper PMC9233669

- System: biotinyl-Met-oxazolone
- experimental.protocol: self-aminoacylation, catalytic enhancement (BMO) (fold over background); higher = more active; k-Seq, kA / k0A0; sequences stand for … in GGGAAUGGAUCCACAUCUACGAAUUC…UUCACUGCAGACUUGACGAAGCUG
Variants at the floor of the assay were thinned out.
Label true (1) when self-aminoacylation >= 2; otherwise false (0).

Task: Could you tell me if the measured self-aminoacylation of AAGUUUGCUAAGAGUAGCAAG [Fam3.1 aminoacylation ribozyme variant] reaches 2 or more?
Result: false (0)

Task: Then what about the sequence CUACUUCAUACAGUCGGUCUG [Fam1A.1 aminoacylation ribozyme variant] ?
Result: false (0)

Task: Then what about the sequence UUUUCCCUGGUCAUCGAGUGA [Fam2.1 aminoacylation ribozyme variant] ?
Result: true (1)

Task: Then what about the sequence ACUACCCUGGUCUUCGAGUGA [Fam2.1 aminoacylation ribozyme variant] ?
Result: true (1)

Task: Then what about the sequence ACUACCCUGGUCAUCGACUGA [Fam2.1 aminoacylation ribozyme variant] ?
Result: false (0)

Task: Then what about the sequence AAGUUUUGUAAUAGUCGCAAG [Fam3.1 aminoacylation ribozyme variant] ?
Result: false (0)

Task: Then what about the sequence AUUACCCUGGACAUGGAGUGA [Fam2.1 aminoacylation ribozyme variant] ?
Result: true (1)

Task: Then what about the sequence AAGUUUGCUACUAGUCCCAAG [Fam3.1 aminoacylation ribozyme variant] ?
Result: false (0)

Task: Then what about the sequence GAGUUUGCUAAUAGUCGGAAG [Fam3.1 aminoacylation ribozyme variant] ?
Result: false (0)

Task: Then what about the sequence AUUGCCCUGGUCCUCGAGUGA [Fam2.1 aminoacylation ribozyme variant] ?
Result: true (1)

Task: Then what about the sequence CUACUUCAAAAAUUCGGUCUG [Fam1A.1 aminoacylation ribozyme variant] ?
Result: false (0)

Task: Then what about the sequence AUUGCCCUGGUCAGCGAGUGA [Fam2.1 aminoacylation ribozyme variant] ?
Result: true (1)

Task: Then what about the sequence CCACUUUUCAAGCAAUCGGUC [Fam1B.1 aminoacylation ribozyme variant] ?
Result: false (0)

Task: Then what about the sequence CUUCACCUAGGUCCUCGGGUG [Fam2.2 aminoacylation ribozyme variant] ?
Result: true (1)

Task: Then what about the sequence AAGUUUGCUAAUAGUCGCAUU [Fam3.1 aminoacylation ribozyme variant] ?
Result: false (0)

Task: Then what about the sequence AUUCACCUAGUUGAUCGGGUG [Fam2.2 aminoacylation ribozyme variant] ?
Result: true (1)

Task: Then what about the sequence AUUACCCUGGUUAUCGGGUGA [Fam2.1 aminoacylation ribozyme variant] ?
Result: true (1)

Task: Then what about the sequence AAUUUUGCUAAUAGUCGCAAU [Fam3.1 aminoacylation ribozyme variant] ?
Result: true (1)

Task: Then what about the sequence AUUCCCCUGGUCAACGAGUGA [Fam2.1 aminoacylation ribozyme variant] ?
Result: true (1)

Task: Then what about the sequence AUUACCCUGGUCAACGAGUGA [Fam2.1 aminoacylation ribozyme variant] ?
Result: true (1)

Task: Then what about the sequence CUUCUUCACACAAUCGGUCUG [Fam1A.1 aminoacylation ribozyme variant] ?
Result: false (0)

Task: Then what about the sequence AGUCACCUAGGUCAUUGGGUG [Fam2.2 aminoacylation ribozyme variant] ?
Result: true (1)

Task: Then what about the sequence AUUCACCUAGGUCUUUGGGUG [Fam2.2 aminoacylation ribozyme variant] ?
Result: true (1)

Task: Then what about the sequence CCACUCUUCAAGCAAUCGAUC [Fam1B.1 aminoacylation ribozyme variant] ?
Result: false (0)

Task: Then what about the sequence CUUACCCUGGUCAUCGAGUCA [Fam2.1 aminoacylation ribozyme variant] ?
Result: false (0)

Task: Then what about the sequence CUACUUCAUAGAAUCGGUCUG [Fam1A.1 aminoacylation ribozyme variant] ?
Result: false (0)

Task: Then what about the sequence AAGUUUCCUAAUAGUCGCAAA [Fam3.1 aminoacylation ribozyme variant] ?
Result: false (0)

Task: Then what about the sequence AAGUAUGCUCAUAGUCGCAAG [Fam3.1 aminoacylation ribozyme variant] ?
Result: false (0)

Task: Then what about the sequence AUUACCCGGGUCAUCGAGUCA [Fam2.1 aminoacylation ribozyme variant] ?
Result: false (0)

Task: Then what about the sequence GAGUAUGCUAAUAGUCGCAAG [Fam3.1 aminoacylation ribozyme variant] ?
Result: false (0)

Task: Then what about the sequence AAGUUUGCAAAUUGUCGCAAG [Fam3.1 aminoacylation ribozyme variant] ?
Result: false (0)

Task: Then what about the sequence AAGUUUUCUGAUAGUCGCAAG [Fam3.1 aminoacylation ribozyme variant] ?
Result: false (0)

Task: Then what about the sequence AUUCACCUCGGUCAGCGGGUG [Fam2.2 aminoacylation ribozyme variant] ?
Result: true (1)

Task: Then what about the sequence CCACAGUUCACGCAAUCGGUC [Fam1B.1 aminoacylation ribozyme variant] ?
Result: false (0)

Task: Then what about the sequence AAGUCUUCUAAUAGUCGCAAG [Fam3.1 aminoacylation ribozyme variant] ?
Result: false (0)
